- system-tested: T1, TSHR coated onto tubes (human, UniProt P16473 21-764, limits assumed)
- T1 construct: whole entry named; also called TSHR coated tubes; thyrotropin receptor
- test-protocol: TSHR coated tubes, competitor 125I-TSH
measured-parameter: % inhib of 125I-TSH binding at 1 µg/mL (%)
Answers are plain numbers, in %.

Below: 2 binders and their reported % inhib of 125I-TSH binding at 1 µg/mL.
Item 17D2 IgG (antibody, V domains shown) VH: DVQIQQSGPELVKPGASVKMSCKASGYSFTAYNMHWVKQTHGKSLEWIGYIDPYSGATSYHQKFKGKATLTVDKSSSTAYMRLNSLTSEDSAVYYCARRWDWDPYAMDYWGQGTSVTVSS VL: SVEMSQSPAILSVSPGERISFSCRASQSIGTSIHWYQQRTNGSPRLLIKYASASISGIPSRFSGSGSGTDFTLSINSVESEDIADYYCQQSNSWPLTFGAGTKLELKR : provide % inhib of 125I-TSH binding at 1 µg/mL
24

Input 14D3 IgG (antibody, V domains shown) VH: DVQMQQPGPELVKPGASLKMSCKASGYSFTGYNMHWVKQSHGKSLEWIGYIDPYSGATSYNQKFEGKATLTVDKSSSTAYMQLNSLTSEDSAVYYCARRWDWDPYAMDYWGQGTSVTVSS VL: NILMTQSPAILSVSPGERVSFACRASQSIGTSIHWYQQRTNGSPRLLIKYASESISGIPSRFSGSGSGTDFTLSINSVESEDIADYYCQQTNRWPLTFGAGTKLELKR , output reported % inhib of 125I-TSH binding at 1 µg/mL.
37

Continuing:
Name the recorded % inhib of 125I-TSH binding at 1 µg/mL of the binder listed here: 9D33 IgG (antibody, V domains shown) VH: DVQIQQPGTELVKPGASVRLSCKASGYTFTTYWMHWVKQRPGQGLEWIGEIDPSDSYTNYNQKFKGKATLTVDKSSSTAYMHLSSLTSEDSAVYYCSRNYGSGYYFDYWGQGTTLTVSS VL: GVEMTQSPAIMSASPGEKVTMTCSASSSVSYMHWYQQKSGTSPKRWIYDTSKLASGVPARFSGSGSGTSYSLTISSMETEDAATYYCQQWSSNPWTFGGGTKLEIK
55
